Ref: BindingDB's records for doi:10.1016/j.chembiol.2011.05.012

Cannabinoid receptor 2 (Homo sapiens, UniProt P34972): recorded pKi for assorted compounds
Sequence (P34972 whole entry): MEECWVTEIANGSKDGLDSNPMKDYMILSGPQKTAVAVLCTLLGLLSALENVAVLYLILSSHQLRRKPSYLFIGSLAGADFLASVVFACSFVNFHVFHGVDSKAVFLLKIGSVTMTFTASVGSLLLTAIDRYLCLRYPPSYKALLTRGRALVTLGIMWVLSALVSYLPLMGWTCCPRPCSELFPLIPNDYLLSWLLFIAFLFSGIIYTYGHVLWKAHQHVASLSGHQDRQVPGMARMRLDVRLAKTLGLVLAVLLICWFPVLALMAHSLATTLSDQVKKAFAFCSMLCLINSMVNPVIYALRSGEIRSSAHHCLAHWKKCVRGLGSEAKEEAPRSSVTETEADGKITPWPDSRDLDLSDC
Scale for pKi: -log10 of concentration given in mol/L; no unit attached.

Enter reported pKi observed with Cannabinoid receptor 2 (Homo sapiens, UniProt P34972) for C=CCc1ccc(OCC)c(-c2ccc(O)c(CC=C)c2)c1 [Magreth-16a]
7.29

---

Cannabinoid receptor 2 (Homo sapiens): recorded Ki for assorted compounds
Entry rule: numbers only, all in nM.

Previously resolved entries follow.
compound	readout value
C=CCc1ccc(O)c(-c2ccc(O)c(/C=C/C)c2)c1	1760
C=CCc1ccc(O)c(-c2ccc(OC)c(CC(C)Br)c2)c1 (stereo unspecified) [Magreth-11b]	84
COc1ccc(-c2cc(CC(C)Br)ccc2O)cc1CC(C)Br (stereo unspecified) [Magreth-11c]	427
C=CCc1ccc(O)c(-c2ccc(OCCC)c(CC=C)c2)c1 [Magreth-17b]	46
CC(Br)Cc1ccc(O)c(-c2ccc(O)c(CC(C)Br)c2)c1 (stereo unspecified) [Magreth-12b]	680
C=CCc1ccc(O)c(-c2ccc(O)c(CC=C)c2)c1	1760
C=CCc1ccc(OCCCCC)c(-c2ccc(O)c(CC=C)c2)c1 [Magreth-18a]	102
C=CCc1ccc(O)c(-c2ccc(OCC)c(CC=C)c2)c1 [Magreth-16b]	40

Enter reported Ki observed with Cannabinoid receptor 2 (Homo sapiens) for CCCc1ccc(O)c(-c2ccc(O)c(CCC)c2)c1
1300

Enter reported Ki observed with Cannabinoid receptor 2 (Homo sapiens) for CCCc1ccc(O)c(-c2ccc(OC)c(CCC)c2)c1
74

---

UniProt:P21554: recorded pKi for assorted compounds
pKi: −log10 of the molar value.

Enter reported pKi observed with UniProt:P21554 for C=CCc1ccc(O)c(-c2ccc(OCCC)c(CC=C)c2)c1 [Magreth-17b]
< 5.30

---

Molecular target: Cannabinoid receptor 2 (Homo sapiens, UniProt P34972)
assay metric: pKi
Scale for pKi: -log10 of concentration given in mol/L; no unit attached.

compound	system tested	pKi
C=CCc1cc(-c2cc(CC(C)Br)ccc2O)ccc1OC (centres undefined) [Magreth-11a]	Cannabinoid receptor 2 (Homo sapiens, UniProt P34972)	5.97
C=CCc1ccc(OCCC)c(-c2ccc(O)c(CC=C)c2)c1 [Magreth-17a]	Cannabinoid receptor 2 (Homo sapiens, UniProt P34972)	7.24

Enter reported pKi observed with Cannabinoid receptor 2 (Homo sapiens, UniProt P34972) for C=CCc1cc(-c2cc(CC(C)Br)ccc2O)ccc1O (centres undefined) [Magreth-12a]
5.90

Enter reported pKi observed with Cannabinoid receptor 2 (Homo sapiens, UniProt P34972) for CCCCC/C=C/C/C=C/C/C=C/C/C=C/CCCC(=O)OC(CO)CO [2-Arachidonoylglycerol, 2-AG]
6.05

---

Each item that follows carries a reported Ki.
Target: Cannabinoid receptor 1 (Homo sapiens, UniProt P21554)
Sequence (P21554 whole entry): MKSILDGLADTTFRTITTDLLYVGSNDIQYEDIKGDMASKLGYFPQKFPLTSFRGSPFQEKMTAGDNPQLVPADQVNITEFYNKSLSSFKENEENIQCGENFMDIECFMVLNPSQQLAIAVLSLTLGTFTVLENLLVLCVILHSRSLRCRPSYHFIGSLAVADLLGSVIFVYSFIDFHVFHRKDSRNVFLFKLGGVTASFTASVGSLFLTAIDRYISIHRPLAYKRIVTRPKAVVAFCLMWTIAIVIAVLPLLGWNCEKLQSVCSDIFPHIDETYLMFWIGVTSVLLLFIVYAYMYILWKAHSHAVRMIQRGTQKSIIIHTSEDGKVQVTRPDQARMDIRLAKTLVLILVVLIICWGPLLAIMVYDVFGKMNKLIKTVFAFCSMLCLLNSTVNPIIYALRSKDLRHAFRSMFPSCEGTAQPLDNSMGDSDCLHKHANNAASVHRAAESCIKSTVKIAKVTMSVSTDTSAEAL

Previously resolved entries follow.
compound	system tested	readout value
C=CCc1ccc(O)c(-c2ccc(OC)c(/C=C/C)c2)c1 [Magreth-3a]	Cannabinoid receptor 1 (Homo sapiens, UniProt P21554)	> 5000 nM
C=CCc1ccc(OCCCCC)c(-c2ccc(O)c(CC=C)c2)c1 [Magreth-18a]	Cannabinoid receptor 1 (Homo sapiens, UniProt P21554)	> 5000 nM
CCCc1ccc(O)c(-c2ccc(O)c(CCC)c2)c1	Cannabinoid receptor 1 (Homo sapiens, UniProt P21554)	> 5000 nM

Enter reported Ki observed with Cannabinoid receptor 1 (Homo sapiens, UniProt P21554) for CCCc1ccc(O)c(-c2ccc(OC)c(CCC)c2)c1
> 2000 nM

Enter reported Ki observed with Cannabinoid receptor 1 (Homo sapiens, UniProt P21554) for C=CCc1ccc(O)c(-c2ccc(OCC)c(CC=C)c2)c1 [Magreth-16b]
970 nM

Enter reported Ki observed with Cannabinoid receptor 1 (Homo sapiens, UniProt P21554) for C=CCc1ccc(O)c(-c2ccc(OC)c(CC=C)c2)c1 [Magreth-14a]
790 nM

Enter reported Ki observed with Cannabinoid receptor 1 (Homo sapiens, UniProt P21554) for C=CCc1ccc(O)c(-c2ccc(OC)c(CC(C)Br)c2)c1 (stereo not drawn) [Magreth-11b]
860 nM

Enter reported Ki observed with Cannabinoid receptor 1 (Homo sapiens, UniProt P21554) for COc1ccc(-c2cc(CC(C)Br)ccc2O)cc1CC(C)Br (stereo not drawn) [Magreth-11c]
> 5000 nM
